Answer each item with its documented IC50.
- Tested on: HCT-116
- assay explanation: Cytotoxicity against human HCT116 cells by MTS assay
- Assay type: functional, cell-based
All answers are understood in µM, so give the number only.

-- ask // returns reported IC50 for input `C/C=C1/CN(C(=O)[C@H](CCCCNC(=N)N)NC(=O)CC(C)C)[C@H](C(=O)N[C@@H](Cc2c[nH]c3ccccc23)C(=O)O)[C@@H]1C`
-- reply 11

-- ask Please report the recorded IC50 for `C/C=C1\CN(C(=O)[C@H](CCCCNC(=N)N)NC(=O)c2ccccc2)[C@H](C(=O)N[C@@H](CC(C)C)C(=O)O)[C@@H]1C` .
-- reply 0.2
